test system: MIA PaCa-2; assay: Antiproliferative activity against human MIA PaCa-2 cells assessed as inhibition of cell growth incubated for 48 hrs by propidium iodide staining based fluorometer assay; type: functional; details: MIA PaCa-2, 48 h
pIC50: −log10 of the molar value.
OUTCOME MEASURE: pIC50

Below, each entry is followed by its recorded pIC50 result.
COMPOUND: COc1cc(/C=C2\CC(C)C/C(=C\c3cc(OC)c(OC)c(OC)c3Br)C2=O)c(Br)c(OC)c1OC (stereo not given)
TARGET UNDER TEST: MIA PaCa-2
OUTCOME MEASURE: pIC50
EXPERIMENTAL VALUE: 5.85
//
COMPOUND: COc1cccc2c1CC/C(=C\c1cc(OC)c(OC)c(OC)c1Br)C2=O
TARGET UNDER TEST: MIA PaCa-2
OUTCOME MEASURE: pIC50
EXPERIMENTAL VALUE: 5.34
//
COMPOUND: COc1cc(/C=C2\CCc3ccc(Cl)cc3C2=O)c(Br)c(OC)c1OC
TARGET UNDER TEST: MIA PaCa-2
OUTCOME MEASURE: pIC50
EXPERIMENTAL VALUE: 4.98
//
COMPOUND: COc1cc(/C=C2\CN(C)C/C(=C\c3cc(OC)c(OC)c(OC)c3Br)C2=NO)c(Br)c(OC)c1OC
TARGET UNDER TEST: MIA PaCa-2
OUTCOME MEASURE: pIC50
EXPERIMENTAL VALUE: 7.15
//
COMPOUND: COc1ccc(/C=C2\CCc3c(O)cccc3C2=O)c(Cl)c1OC
TARGET UNDER TEST: MIA PaCa-2
OUTCOME MEASURE: pIC50
EXPERIMENTAL VALUE: 5.49

(P) COc1cc(/C=C2\CCc3c(O)cccc3\C2=N\O)c(Br)c(OC)c1OC
(Q) COc1cc(/C=C2\CCc3ccccc3C2=O)c(Br)c(OC)c1OC
(R) COc1ccc2c(c1)CC/C(=C\c1cccc(OC)c1Cl)C2=O
(S) COc1cc(/C=C2\CC(C(C)C)C/C(=C\c3cc(OC)c(OC)c(OC)c3Br)C2=O)c(Br)c(OC)c1OC (stereo not given)
(T) COc1cccc(/C=C2\CCc3ccc(Cl)cc3C2=O)c1Cl
Ask | # desc sort on pIC50 across 5 compounds Give the order by naming the labels one after another as requested.
Reply | P, R, S, T, Q
(P: 5.92, R: 5.40, S: 5.12, T: 4.89, Q: 4.63)

---

molecular target: UniProt P00533; test: Inhibition of recombinant 6His-tagged EGFR cytoplasmic domain (645 to 1186 residues) (unknown origin) autophosphorylation expressed in baculovirus infected Sf9 insect cells preincubated for 10 mins followed by ATP and MgCl2 addition measured after 60 mins by DELFIA/time-resolved fluorometric analysis
Sequence (P00533 whole entry, the tested form may be a part): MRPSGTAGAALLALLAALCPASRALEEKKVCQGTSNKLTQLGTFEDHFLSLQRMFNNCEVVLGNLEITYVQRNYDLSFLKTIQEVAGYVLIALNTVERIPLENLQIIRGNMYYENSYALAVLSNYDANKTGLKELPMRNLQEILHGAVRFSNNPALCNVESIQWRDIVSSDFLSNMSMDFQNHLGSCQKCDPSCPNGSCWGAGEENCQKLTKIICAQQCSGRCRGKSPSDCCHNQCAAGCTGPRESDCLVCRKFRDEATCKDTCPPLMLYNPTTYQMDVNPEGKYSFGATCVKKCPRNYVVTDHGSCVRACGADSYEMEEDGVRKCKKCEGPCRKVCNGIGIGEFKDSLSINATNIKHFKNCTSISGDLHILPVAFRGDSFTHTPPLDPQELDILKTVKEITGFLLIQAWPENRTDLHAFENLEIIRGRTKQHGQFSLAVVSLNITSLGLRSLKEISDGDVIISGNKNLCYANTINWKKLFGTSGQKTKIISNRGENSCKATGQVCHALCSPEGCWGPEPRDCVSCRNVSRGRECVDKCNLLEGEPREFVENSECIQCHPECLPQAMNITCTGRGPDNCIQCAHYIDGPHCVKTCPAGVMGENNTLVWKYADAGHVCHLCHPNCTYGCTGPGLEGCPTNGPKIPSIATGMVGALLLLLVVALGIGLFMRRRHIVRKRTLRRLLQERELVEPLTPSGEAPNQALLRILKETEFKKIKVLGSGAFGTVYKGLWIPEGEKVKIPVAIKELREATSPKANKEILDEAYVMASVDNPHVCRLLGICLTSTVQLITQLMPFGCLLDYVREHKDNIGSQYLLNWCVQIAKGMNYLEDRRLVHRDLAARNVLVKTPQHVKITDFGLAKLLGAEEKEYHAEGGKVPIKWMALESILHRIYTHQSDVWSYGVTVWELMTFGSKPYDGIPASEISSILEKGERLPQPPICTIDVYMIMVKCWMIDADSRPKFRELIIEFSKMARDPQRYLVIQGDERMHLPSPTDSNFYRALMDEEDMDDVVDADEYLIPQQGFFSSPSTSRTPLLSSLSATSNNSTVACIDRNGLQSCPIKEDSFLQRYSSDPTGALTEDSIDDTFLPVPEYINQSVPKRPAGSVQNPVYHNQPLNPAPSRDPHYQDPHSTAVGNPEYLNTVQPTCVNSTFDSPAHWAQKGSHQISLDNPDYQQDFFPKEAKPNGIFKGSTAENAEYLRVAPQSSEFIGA
pIC50: −log10 of the molar value.
OUTCOME MEASURE: pIC50

Solved entries (count: 2):
COMPOUND: COc1cc(/C=C2\CN(C)C/C(=C\c3cc(OC)c(OC)c(OC)c3Br)C2=NO)c(Br)c(OC)c1OC
TARGET UNDER TEST: UniProt P00533
OUTCOME MEASURE: pIC50
EXPERIMENTAL VALUE: 7.15
//
COMPOUND: COc1cc(/C=C2\CC(C)c3ccccc3\C2=N\O)c(Br)c(OC)c1OC (centres undefined)
TARGET UNDER TEST: UniProt P00533
OUTCOME MEASURE: pIC50
EXPERIMENTAL VALUE: 5.49

(1) COc1ccc(/C=C2\CCc3ccc([N+](=O)[O-])cc3\C2=N\O)c(Cl)c1OC
(2) COc1cc2c(cc1OC)C(=N/O)/C(=C/c1cc(OC)c(OC)c(OC)c1Br)CC2
Ask | Lower value of pIC50 belongs to which: 1 or 2 ? Your choice should be expressed through its label.
Reply | 2
(2: 5.08, 1: 5.70)

Entry source: ChEMBL document CHEMBL5257024
